Provide the reported IC50 of each item.
Target: catalytic domain of human PARP14 (Homo sapiens (Human), UniProt Q460N5)
Sequence (Q460N5 1611-1801): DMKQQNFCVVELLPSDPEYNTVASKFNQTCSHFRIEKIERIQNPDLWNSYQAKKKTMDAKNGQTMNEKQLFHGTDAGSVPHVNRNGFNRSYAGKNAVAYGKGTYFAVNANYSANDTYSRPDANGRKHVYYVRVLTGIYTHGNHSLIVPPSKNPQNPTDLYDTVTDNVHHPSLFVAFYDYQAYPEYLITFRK
Test: Enzymatic assay for inhibition of PARP14 (DELFIA, auto-modification with biotin-NAD)
Settings: auto-modification of PARP14 by biotin-NAD, 50 nM PARP14, 3 μM biotin-NAD
Protocol: An N-terminal His-TEV fusion tag was used to purify the protein from cell lysates. The His-TEV tag was left on the protein for use in the enzymatic assay. Enzymatic inhibition of PARP14 was measured using a dissociation-enhanced lanthanide fluorescence immunoassay (DELFIA) monitoring the auto-modification of PARP14 by biotinylated nicotinamide adenine dinucleotide (biotin-NAD). […]
Counter-ions that a name gives are not always drawn.

-- ask Fill in: IC50 of O=c1[nH]c(CSC2CCN(Cc3ccccn3)CC2)nc2cc(NC3CCCC3)cc(F)c12 [Example 281] is ___
-- reply < 1000 nM

-- ask What measured IC50 goes with COc1ccc2c(=O)[nH]c(CSC3CCOCC3)nc2c1 [Example 31] ?
-- reply 1000 to 10000 nM

-- ask Find the recorded IC50 belonging to CC(=O)N1CCC(COc2cc(F)c3c(=O)[nH]c(CSC4CCOCC4)nc3c2)C1 (stereo not drawn) [Example 367] and report it.
-- reply < 1000 nM

-- ask Return reported IC50; argument: CN1CCN([C@H]2CC[C@H](Nc3cc4nc(CSC5CCOCC5)[nH]c(=O)c4c(F)c3F)CC2)CC1 [Example 346]
-- reply < 1000 nM

-- ask Fill in the blank: the reported IC50 of Cc1cccc2c(=O)[nH]c(CS[C@H]3C[C@H](N)C3)nc12 [Example 52, Hydrochloride] is ____.
-- reply 1000 to 10000 nM

-- ask Could you share which IC50 value was measured for Cc1cccc2c(=O)[nH]c(CSC3CCN(CCc4ccccc4)CC3)nc12 [Example 147, trifluoroacetate] ?
-- reply < 1000 nM

-- ask Item under review: O=c1[nH]c(CSC2CCOCC2)nc2cc(OC[C@H]3CCC[C@H]3O)cc(F)c12 (relative stereo) [Example 359] . Reported IC50?
-- reply < 1000 nM

-- ask May I ask what IC50 has been recorded for O=c1[nH]c(CS[C@H]2CC[C@H](O)CC2)nc2cc(Nc3ccccc3)ccc12 [Example 98] ?
-- reply < 1000 nM

-- ask Would you mind telling me what IC50 value was observed for CC(Nc1ccc2c(=O)[nH]c(CSC3CCOCC3)nc2c1)c1ccccc1 (stereo not drawn) [Example 120] ?
-- reply > 10000 nM
